Please provide measured log10(IC50) for the entries that follow.
# Test Target: factor B (Homo sapiens, UniProt P00751)
# Sequence (P00751 260-764 limits assumed): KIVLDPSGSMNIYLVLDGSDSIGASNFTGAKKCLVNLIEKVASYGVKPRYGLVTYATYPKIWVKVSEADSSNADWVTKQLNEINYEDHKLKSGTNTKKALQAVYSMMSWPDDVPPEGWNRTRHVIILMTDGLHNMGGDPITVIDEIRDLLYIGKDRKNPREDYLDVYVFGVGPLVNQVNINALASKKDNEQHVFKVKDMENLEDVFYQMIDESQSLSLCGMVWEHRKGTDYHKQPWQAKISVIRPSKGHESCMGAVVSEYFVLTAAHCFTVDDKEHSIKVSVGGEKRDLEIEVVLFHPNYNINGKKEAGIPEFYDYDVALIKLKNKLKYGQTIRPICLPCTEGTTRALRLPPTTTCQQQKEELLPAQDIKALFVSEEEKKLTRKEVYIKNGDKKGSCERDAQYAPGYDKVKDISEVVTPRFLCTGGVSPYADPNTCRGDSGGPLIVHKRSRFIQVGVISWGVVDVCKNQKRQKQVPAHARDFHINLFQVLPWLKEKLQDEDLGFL
# Sequence (Q91132 23-649 partner limits assumed): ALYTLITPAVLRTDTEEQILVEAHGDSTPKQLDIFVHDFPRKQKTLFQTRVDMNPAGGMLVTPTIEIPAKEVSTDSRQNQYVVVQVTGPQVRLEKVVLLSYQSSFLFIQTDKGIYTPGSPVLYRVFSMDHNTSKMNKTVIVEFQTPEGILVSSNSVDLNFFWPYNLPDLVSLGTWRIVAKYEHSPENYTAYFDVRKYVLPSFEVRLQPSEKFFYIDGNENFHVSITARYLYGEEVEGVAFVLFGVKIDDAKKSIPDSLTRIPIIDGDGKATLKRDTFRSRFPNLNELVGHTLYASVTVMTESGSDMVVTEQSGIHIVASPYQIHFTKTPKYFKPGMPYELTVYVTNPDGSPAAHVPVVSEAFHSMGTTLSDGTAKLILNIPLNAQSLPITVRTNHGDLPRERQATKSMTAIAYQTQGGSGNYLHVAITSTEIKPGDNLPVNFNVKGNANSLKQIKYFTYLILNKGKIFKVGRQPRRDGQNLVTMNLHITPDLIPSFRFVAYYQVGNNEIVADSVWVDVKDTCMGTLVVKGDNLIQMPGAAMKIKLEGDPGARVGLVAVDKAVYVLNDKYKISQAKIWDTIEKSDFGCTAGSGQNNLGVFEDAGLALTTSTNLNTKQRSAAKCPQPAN
# Sequence (Q91132 733-984 partner limits assumed): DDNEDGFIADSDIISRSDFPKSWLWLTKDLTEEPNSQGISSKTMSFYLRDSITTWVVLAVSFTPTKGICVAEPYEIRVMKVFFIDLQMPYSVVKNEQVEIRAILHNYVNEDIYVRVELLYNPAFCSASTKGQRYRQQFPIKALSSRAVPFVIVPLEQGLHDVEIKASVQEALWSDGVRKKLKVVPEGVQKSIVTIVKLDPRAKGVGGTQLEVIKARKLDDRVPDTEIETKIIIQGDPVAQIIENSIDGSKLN
# Sequence (Q91132 1264-1642 partner limits assumed): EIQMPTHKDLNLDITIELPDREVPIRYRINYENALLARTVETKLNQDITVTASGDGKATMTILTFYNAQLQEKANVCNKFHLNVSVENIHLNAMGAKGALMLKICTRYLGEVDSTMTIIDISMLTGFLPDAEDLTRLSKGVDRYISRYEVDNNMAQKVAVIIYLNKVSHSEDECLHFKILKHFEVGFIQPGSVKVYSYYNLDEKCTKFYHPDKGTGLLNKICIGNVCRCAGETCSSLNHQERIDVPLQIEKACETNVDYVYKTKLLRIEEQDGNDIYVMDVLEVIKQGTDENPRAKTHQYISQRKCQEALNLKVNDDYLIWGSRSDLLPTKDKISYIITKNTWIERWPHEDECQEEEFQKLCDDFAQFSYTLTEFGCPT
# Measurement Notes: factor B inhibition assay of Biological Example 1
# Format: biochemical
# Set-up: CVF-Bb complex prepared from purified cobra venom factor (1 μM), recombinant human complement factor B; made in house; host or cells: drosophila cells (factor B); E. coli (factor D used to form the complex)
# Setup Conditions: IC50 (nM), assay of Biological Example 1 (Table 1)
// do not treat as linear: log10 of IC50, unit nM

- Compound: "Cc1cc(C)c2c(c1Cc1nc3cc(C#N)ccc3[nH]1)CCN2 [Example 123]"
  Value Reported: 2.96
- Compound: "Cc1cc(CC(C)C)c(C(O)c2nc3cc(C#N)ccc3[nH]2)c2cc[nH]c12 (single isomer, unassigned; (+)) [67-C b) (+)]"
  Value Reported: 3.94
- Compound: "CCOc1cc(C)c2[nH]ccc2c1C(O)(c1nc2cc(C#N)ccc2[nH]1)C(F)(F)F (single isomer, unassigned) [33-C b) (tr = 3 min)]"
  Value Reported: 2.69
- Compound: "Cc1cc(S(C)(=O)=O)c(C(O)(c2nc3cc(C#N)ccc3[nH]2)C(F)(F)F)c2cc[nH]c12 (single isomer, unassigned; (-)) [14-D b) (−)]"
  Value Reported: 2.43
- Compound: "CCc1cc(C)c2[nH]ccc2c1C(=O)c1nc2cc(C#N)ccc2[nH]1 [Example 78]"
  Value Reported: 2.81
- Compound: "Cc1cc(C(C)C)c(C(C)(N)c2nc3cc(C#N)ccc3[nH]2)c2cc[nH]c12 (stereo not drawn) [102-E a)]"
  Value Reported: 1.78
- Compound: "Cc1cc(C2CC2)c(C(C)(N)c2nc3cc(C#N)ccc3[nH]2)c2cc[nH]c12 (single isomer, unassigned; (-)) [102-D b) (−)]"
  Value Reported: 0.90
- Compound: "Cc1cc(Cl)c2[nH]ccc2c1Cc1nc2cc(C#N)ccc2[nH]1 [Example 110-K]"
  Value Reported: 3.52
- Compound: "COc1cc(C)c2[nH]ccc2c1C(N)(c1nc2cc(C#N)ccc2[nH]1)C(F)(F)F (racemic) [36-E b) (−)]"
  Value Reported: 1.60
- Compound: "CCOc1cc(C)c2[nH]ccc2c1C(CN)c1nc2cc(C#N)ccc2[nH]1 (racemic) [Example 44-C]"
  Value Reported: 2.94

Please look at the items below and tell me log10(IC50) for each one, in order.
1. Cc1cc(C2CC2)c(C(N)(c2nc3cc(C#N)ccc3[nH]2)C(F)(F)F)c2cc[nH]c12 (single isomer, unassigned; (-)) [107-D b) (−)]
2. Cc1cc(C(F)(F)F)c(C(C)(O)c2nc3cc(C#N)ccc3[nH]2)c2cc[nH]c12 (racemic) [Example 83-B]
3. C=Cc1cc(C)c2[nH]ccc2c1Cc1nc2cc(C#N)ccc2[nH]1 [Example 63-C]
4. COc1cc(C)c2[nH]ccc2c1Cc1nc2cc(C#N)ccc2o1 [Example 20-G]
5. Cc1cc(OC(C)C)c(C(O)c2nc3cc(C#N)ccc3[nH]2)c2cc[nH]c12 (single isomer, unassigned; (-)) [24-D b) (−)]

1: 0.90; 2: 3.16; 3: 1.95; 4: 2.08; 5: 2.69
